All values here come from the RNAGym collection of RNA variant scans (doi:10.1021/acssynbio.7b00057).

B1: Pistol ribozyme (parent)
chain: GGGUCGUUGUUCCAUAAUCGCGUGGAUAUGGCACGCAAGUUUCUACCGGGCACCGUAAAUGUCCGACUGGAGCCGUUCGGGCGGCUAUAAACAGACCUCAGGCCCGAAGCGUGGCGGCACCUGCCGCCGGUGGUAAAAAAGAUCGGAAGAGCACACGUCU

variants of: B1; assay: aptazyme ON/OFF ratio, guanine; higher = stronger switching; co-transcriptional cleavage with and without guanine
metric: aptazyme ON/OFF ratio
Lab note: write the figure by itself, no unit.

I'd like to know its aptazyme ON/OFF ratio. The variant in question is U7G U10G U11A C12U C13A
1.1

I'd like to know its aptazyme ON/OFF ratio. The variant in question is U7G U8C G9U U10G C12U C13A
1.29
